Recorded IC50 for the following compounds
System Name: IRAK4 (Homo sapiens (Human))
Sequence (Q9NWZ3 whole entry): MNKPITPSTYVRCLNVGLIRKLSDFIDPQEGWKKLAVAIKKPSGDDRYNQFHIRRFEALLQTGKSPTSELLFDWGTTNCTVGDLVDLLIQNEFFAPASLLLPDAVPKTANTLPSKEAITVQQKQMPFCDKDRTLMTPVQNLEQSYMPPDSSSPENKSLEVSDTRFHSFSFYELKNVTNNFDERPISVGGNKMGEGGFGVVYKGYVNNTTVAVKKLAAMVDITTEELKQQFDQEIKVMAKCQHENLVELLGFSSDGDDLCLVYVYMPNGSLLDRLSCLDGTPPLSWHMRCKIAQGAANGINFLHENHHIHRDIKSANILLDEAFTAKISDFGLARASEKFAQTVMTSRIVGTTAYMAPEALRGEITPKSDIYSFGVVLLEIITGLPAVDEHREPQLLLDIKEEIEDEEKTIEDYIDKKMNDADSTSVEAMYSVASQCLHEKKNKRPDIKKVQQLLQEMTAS
Method Summary: IRAK4 kinase activity, IMAP fluorescence polarization assay
Assay type: biochemical
Experimental Parameters: 100 μM ATP, 0.5 nM GST tagged IRAK4; read-out: IRAK4 IC50
Structures can show the parent of a compound that is named as a salt.
Express your answer in nM, writing the number without its unit.

compound="O=c1[nH]c(N2CCCCC2)nc(N[C@@H]2C[C@H](CO)[C@@H](O)[C@H]2O)c1-c1nc(-c2ccc(F)cc2)cs1 [Example 59, HCl]" measured_number=22.5
compound=O=c1[nH]c(C2CCN(c3ccccn3)CC2)nc(N[C@@H]2CCCNC2)c1-c1nc2ccccc2s1 measured_number=180
compound=Cc1cnc(-c2c(N[C@@H]3CCCNC3)nc(N3CCOCC3)[nH]c2=O)s1 measured_number=1270
compound=CN1CCC[C@@H](Nc2nc(N3CCOCC3)[nH]c(=O)c2-c2nc3ccccc3s2)C1 measured_number=354
compound="CC1CCC(Nc2nc(N3CCOCC3)[nH]c(=O)c2-c2ccc3ccccc3n2)CN1 (stereo not shown)" measured_number=91
compound="N[C@H]1CCCC[C@H]1Nc1cccc2sc(-c3c(N[C@@H]4CCCNC4)nc(N4CCOCC4)[nH]c3=O)nc12 (racemic)" measured_number=24

With those in mind, consider the next compound.
Give its IC50 value. Item: O=c1[nH]c(N2CCOCC2)nc(NC2CCCCNC2)c1-c1nc2ccccc2s1 (stereo not shown)
27
